Source: patent US20050250818A1

tgt: human EP4 receptors (Homo sapiens)
Sequence (P35408 whole entry): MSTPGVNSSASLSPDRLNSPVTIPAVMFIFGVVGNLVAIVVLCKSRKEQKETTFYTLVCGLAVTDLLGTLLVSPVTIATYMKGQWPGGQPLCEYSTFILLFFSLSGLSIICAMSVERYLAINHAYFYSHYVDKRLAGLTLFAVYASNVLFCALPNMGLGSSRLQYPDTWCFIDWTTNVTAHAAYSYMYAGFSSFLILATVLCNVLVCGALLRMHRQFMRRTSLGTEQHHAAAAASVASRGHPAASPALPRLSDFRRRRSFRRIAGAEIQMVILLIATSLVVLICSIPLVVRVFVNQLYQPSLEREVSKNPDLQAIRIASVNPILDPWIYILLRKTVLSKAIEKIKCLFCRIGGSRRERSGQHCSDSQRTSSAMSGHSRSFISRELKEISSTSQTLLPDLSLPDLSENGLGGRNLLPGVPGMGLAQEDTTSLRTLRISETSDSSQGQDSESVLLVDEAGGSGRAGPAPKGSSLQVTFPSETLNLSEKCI
assay.remarks: cAMP assay in human EP4 transfectant
condition.notes: HEK293 cells expressing human EP4 receptors; 1 nM PGE2, 0.2 mM IBMX, 37° C. for 10 min

compound | readout.units | IC50
Cc1cc(COc2ccc(Cl)cc2C(=O)N[C@@H](C)c2ccc(C(=O)O)cc2)no1 | nM | 130
COC(COc1ccc(Cl)cc1C(=O)N[C@@H](C)c1ccc(C(=O)O)cc1)c1ccccc1 (stereo partly drawn) | nM | 140
C[C@H](NC(=O)c1cc(Cl)ccc1OCc1ccc(Cl)cc1)c1ccc(C(=O)O)cc1 | nM | 29
C[C@H](NC(=O)c1cc(Cl)ccc1OCc1ccccc1Cl)c1ccc(C(=O)O)cc1 | nM | 13
C[C@H](NC(=O)c1cc(Cl)ccc1OCc1ccccc1)c1ccc(C(=O)O)cc1 | nM | 75
C[C@H](NC(=O)c1cc(Cl)cnc1OCc1ccccc1Cl)c1ccc(C(=O)O)cc1 | nM | 76
O=C(O)c1ccc(CNC(=O)c2cc(Cl)ccc2OCCc2ccccc2)cc1 | nM | 149
C[C@H](NC(=O)c1cc(Cl)cnc1OCCc1ccc(F)cc1)c1ccc(C(=O)O)cc1 | nM | 240
C[C@H](NC(=O)c1cc(Cl)ccc1OCCC1CCOCC1)c1ccc(C(=O)O)cc1 | nM | 467
COC(C)(C)CCOc1ccc(Cl)cc1C(=O)N[C@@H](C)c1ccc(C(=O)O)cc1 | nM | 510
C[C@H](NC(=O)c1cc(Cl)cnc1OCCc1ccc(Cl)cc1)c1ccc(C(=O)O)cc1 | nM | 78
C[C@H](NC(=O)c1cc(Cl)cnc1N(C)Cc1cccc(F)c1)c1ccc(C(=O)O)cc1 | nM | 180
O=C(O)c1ccc(CNC(=O)c2cc(Cl)ccc2OCCc2ccc(Cl)cc2)cc1 | nM | 107
C[C@H](NC(=O)c1cc(Cl)ccc1OCC1CCCO1)c1ccc(C(=O)O)cc1 (stereo partly drawn) | nM | 360
Cc1ccccc1CCOc1ncc(Cl)cc1C(=O)N[C@@H](C)c1ccc(C(=O)O)cc1 | nM | 130
Cc1ccccc1CCOc1ccc(Cl)cc1C(=O)N[C@@H](C)c1ccc(C(=O)O)cc1 | nM | 20
CC(C)COc1ccc(Cl)cc1C(=O)N[C@@H](C)c1ccc(C(=O)O)cc1 | nM | 140
C[C@H](NC(=O)c1cc(Cl)cnc1N(C)Cc1ccc(F)cc1)c1ccc(C(=O)O)cc1 | nM | 110
C[C@H](NC(=O)c1cc(Cl)ccc1OC1CCCCC1)c1ccc(C(=O)O)cc1 | nM | 35
C[C@H](NC(=O)c1cc(Cl)ccc1OCc1cccc(Cl)c1)c1ccc(C(=O)O)cc1 | nM | 22
CC(C)CCOc1ncc(Cl)cc1C(=O)N[C@@H](C)c1ccc(C(=O)O)cc1 | nM | 140
C[C@H](NC(=O)c1cc(Cl)cnc1N(C)Cc1cccc(Cl)c1)c1ccc(C(=O)O)cc1 | nM | 65
C[C@H](NC(=O)c1cc(Cl)ccc1OCc1ccc(F)cc1F)c1ccc(C(=O)O)cc1 | nM | 110
C[C@H](NC(=O)c1cc(Cl)ccc1OCc1ncccc1Cl)c1ccc(C(=O)O)cc1 | nM | 480
O=C(O)c1ccc(CNC(=O)c2cc(Cl)ccc2OCCc2ccccc2Cl)cc1 | nM | 108
C[C@H](NC(=O)c1cc(Cl)ccc1O[C@H]1CC[C@@H](C)CC1)c1ccc(C(=O)O)cc1 | nM | 510
C[C@H](NC(=O)c1cc(Cl)ccc1OCCOc1ccc(F)cc1)c1ccc(C(=O)O)cc1 | nM | 210
C[C@H](NC(=O)c1cc(Cl)cnc1OCc1ccc(Cl)cc1)c1ccc(C(=O)O)cc1 | nM | 72
C[C@H](NC(=O)c1cc(Cl)ccc1O[C@H]1CC[C@H](C)CC1)c1ccc(C(=O)O)cc1 | nM | 260
C[C@H](NC(=O)c1cc(Cl)ccc1OCCc1ccc(F)cc1)c1ccc(C(=O)O)cc1 | nM | 41
CC(C)OCCOc1ccc(Cl)cc1C(=O)N[C@@H](C)c1ccc(C(=O)O)cc1 | nM | 200
O=C(O)c1ccc(CNC(=O)c2cc(Cl)ccc2OCCc2ccc(F)cc2)cc1 | nM | 126
C[C@H](NC(=O)c1cc(Cl)ccc1OCc1ccc(F)c(F)c1)c1ccc(C(=O)O)cc1 | nM | 63
